Cited source for all entries: patent US8884023B2

measured_target: His-Tagged hOGA (human O-GlcNAcase) (Homo sapiens)
Sequence (O60502 whole entry): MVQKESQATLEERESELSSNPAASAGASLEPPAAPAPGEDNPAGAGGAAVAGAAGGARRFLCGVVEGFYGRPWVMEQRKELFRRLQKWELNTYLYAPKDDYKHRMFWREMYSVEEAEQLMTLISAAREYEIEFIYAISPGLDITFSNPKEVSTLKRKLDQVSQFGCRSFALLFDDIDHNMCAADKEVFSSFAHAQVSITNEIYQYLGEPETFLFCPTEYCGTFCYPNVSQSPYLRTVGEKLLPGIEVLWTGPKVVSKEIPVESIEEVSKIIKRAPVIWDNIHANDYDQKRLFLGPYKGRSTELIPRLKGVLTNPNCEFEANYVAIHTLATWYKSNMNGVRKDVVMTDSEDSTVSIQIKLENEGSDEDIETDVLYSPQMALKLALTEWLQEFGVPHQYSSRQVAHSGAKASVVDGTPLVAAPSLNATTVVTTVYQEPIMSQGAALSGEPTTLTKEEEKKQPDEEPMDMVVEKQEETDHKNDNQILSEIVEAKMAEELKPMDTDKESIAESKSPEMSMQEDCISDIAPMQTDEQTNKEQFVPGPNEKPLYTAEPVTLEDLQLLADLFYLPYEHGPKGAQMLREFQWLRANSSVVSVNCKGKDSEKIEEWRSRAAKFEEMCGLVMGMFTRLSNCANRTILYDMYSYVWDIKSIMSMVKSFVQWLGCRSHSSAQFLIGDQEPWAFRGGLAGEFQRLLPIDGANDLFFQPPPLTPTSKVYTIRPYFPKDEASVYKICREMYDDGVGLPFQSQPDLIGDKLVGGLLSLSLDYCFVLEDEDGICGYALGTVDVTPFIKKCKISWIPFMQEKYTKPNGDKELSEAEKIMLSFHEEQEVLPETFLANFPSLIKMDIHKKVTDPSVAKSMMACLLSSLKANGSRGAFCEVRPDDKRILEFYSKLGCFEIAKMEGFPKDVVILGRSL
run_description: biochemical
condition_summary: read-out: OGA enzyme inhibition (IC50)
Readings of IC50 for the listed compounds
readout_kind: IC50

CCNC1=N[C@@H]2[C@@H](O)[C@H](O)[C@@H](Cn3cc(COc4cccc(Br)c4)nn3)O[C@@H]2S1: < 100 nM
CCNC1=N[C@@H]2[C@@H](O)[C@H](O)[C@@H](Cn3cc(COc4cccc(C)c4)nn3)O[C@@H]2S1: < 100 nM
CCNC1=N[C@@H]2[C@@H](O)[C@H](O)[C@@H](Cn3cc(COc4cccc(O)c4)nn3)O[C@@H]2S1: < 100 nM
CCN(C)C1=N[C@@H]2[C@@H](O)[C@H](O)[C@@H](C(=O)O)O[C@@H]2S1: > 1000 nM
CCNC1=N[C@@H]2[C@@H](O)[C@H](O)[C@@H](Cn3cc(COc4ccccc4C)nn3)O[C@@H]2S1: < 100 nM
CCNC1=N[C@@H]2[C@@H](O)[C@H](O)[C@@H]([C@H](O)CCc3ccccc3)O[C@@H]2S1: > 1000 nM
CCNC1=N[C@@H]2[C@@H](O)[C@H](O)[C@@H](Cn3cc(COc4ccccc4CN)nn3)O[C@@H]2S1: 100 to 500 nM
CCNC1=N[C@@H]2[C@@H](O)[C@H](O)[C@@H](C(=O)OC)O[C@@H]2S1: > 1000 nM
CCNC1=N[C@@H]2[C@@H](O)[C@H](O)[C@@H](Cn3cc(COc4ccccc4F)nn3)O[C@@H]2S1: < 100 nM
CCNC1=N[C@@H]2[C@@H](O)[C@H](O)[C@@H](Cn3cc(COc4cccc(F)c4)nn3)O[C@@H]2S1: < 100 nM
CCNC1=N[C@@H]2[C@@H](O)[C@H](O)[C@@H](Cn3cc(COc4ccc(Cl)cc4)nn3)O[C@@H]2S1: < 100 nM
CCNC1=N[C@@H]2[C@@H](O)[C@H](O)[C@@H](CCl)O[C@@H]2S1: < 100 nM
CCNC1=N[C@@H]2[C@@H](O)[C@H](O)[C@@H](CN(C)C)O[C@@H]2S1: 100 to 500 nM
CCNC1=N[C@@H]2[C@@H](O)[C@H](O)[C@@H](Cn3cc(Cn4cccc4)nn3)O[C@@H]2S1: < 100 nM
CCNC1=N[C@@H]2[C@@H](O)[C@H](O)[C@@H](COC(=O)OC(C)(C)C)O[C@@H]2S1: 100 to 500 nM
CCNC1=N[C@@H]2[C@@H](O)[C@H](O)[C@@H](Cn3cc(COc4ccc(C)cc4)nn3)O[C@@H]2S1: 100 to 500 nM
CCNC1=N[C@@H]2[C@@H](O)[C@H](O)[C@@H](Cn3cc(COc4ccccc4)nn3)O[C@@H]2S1: < 100 nM
CCNC1=N[C@@H]2[C@@H](O)[C@H](O)[C@@H](Cn3cc(-c4ccccn4)nn3)O[C@@H]2S1: 100 to 500 nM
CCNC1=N[C@@H]2[C@@H](O)[C@H](O)[C@@H](Cn3cc(COc4cccc(N)c4)nn3)O[C@@H]2S1: 100 to 500 nM
CCNC1=N[C@@H]2[C@@H](O)[C@H](O)[C@@H](COCc3ccccc3)O[C@@H]2S1: > 1000 nM
CCNC1=N[C@@H]2[C@@H](O)[C@H](O)[C@@H](C(=O)O)O[C@@H]2S1: > 1000 nM
CCNC1=N[C@@H]2[C@@H](O)[C@H](O)[C@@H](C(=O)CCc3ccccc3)O[C@@H]2S1: > 1000 nM
CCNC1=N[C@@H]2[C@@H](O)[C@H](O)[C@@H](Cn3cc(COc4ccc(F)cc4)nn3)O[C@@H]2S1: < 100 nM
C/C=C/C(=O)NC1=N[C@@H]2[C@@H](O)[C@H](O)[C@@H](CO)O[C@@H]2S1: 500 to 1000 nM
CCNC1=N[C@@H]2[C@@H](O)[C@H](O)[C@@H](Cn3cc(C(=O)OC)nn3)O[C@@H]2S1: 100 to 500 nM
CCNC1=N[C@@H]2[C@@H](O)[C@H](O)[C@@H](C(=O)N(C)OC)O[C@@H]2S1: > 1000 nM
CCNC1=N[C@@H]2[C@@H](O)[C@H](O)[C@@H](Cn3cc(C4(c5ccccc5)CC4)nn3)O[C@@H]2S1: < 100 nM
CCNC1=N[C@@H]2[C@@H](O)[C@H](O)[C@@H](C(O)CCc3ccccc3)O[C@@H]2S1 (single isomer, unassigned): 100 to 500 nM
